Assay: reversal of MRP1-mediated doxorubicin resistance, pilot screen, H69AR cells, doxorubicin co-treatment (AID 601)
Details: H69AR cells + 2 uM doxorubicin, CellTiter-Glo, 72 h; at 10 µM; stronger effect = higher value
metric: differential viability (reversal) (%)
Give just the number in %; leave the unit off.

I have this molecule here, CCOc1ccccc1NC(=O)NC1CCN(CC(=O)Nc2ccc3c(c2)OCCO3)CC1 , and I need its recorded differential viability (reversal).
-7.47

Query: differential viability (reversal); subject: CCS(=O)(=O)CCn1c([N+](=O)[O-])cnc1C
9.26

# differential viability (reversal) lookup, item CCOC(=O)c1[nH]c(C)c(C(=O)N2CCN(C(=O)c3ccco3)CC2)c1C
2.2

Fill in the blank: the reported differential viability (reversal) of CCOc1ccccc1C(=O)N1CCN(c2cccc(Cl)c2)CC1 is ____.
-35.7

What does the data say about its differential viability (reversal)? Entry: COc1ccc(Br)cc1C(=O)Nc1nnn(C)n1
10.9

Please give the measured differential viability (reversal) for this molecule: COC(=O)C(C)C1Sc2ccccc2NC1=O (stereo unspecified)
12.1

Returns the measured differential viability (reversal) for the input molecule. Input: CC(=O)N(C(C)=O)c1c(C#N)c(C)n(-c2ccccc2)c1C(=O)c1ccccc1
-9.1

GET /values?readout=differential viability (reversal)&item= CCN(CC)S(=O)(=O)c1ccc(NC2CCCc3ccccc32)nc1 (stereo unspecified)
0.97

Which differential viability (reversal) is reported for this molecule? CCOC(=O)C1CCN(C(=O)c2ccc(Cl)c(Cl)c2)CC1
5.88

Entry under review: CCn1c(C(=O)OC)cc2c1ccn2-c1ccc(F)cc1 . Reported differential viability (reversal)?
7.09

For Cc1nn(-c2ccccc2)c2c1C(c1c(C)[nH]c(C#N)c1C)C(C#N)=C(N)O2 (stereo unspecified) , what is its reported differential viability (reversal)?
-13.2

----------
Test: viability gain of MRP-1-high H69AR cells under doxorubicin, pilot screen, MRP-1 activator project, CellTiter-Glo, duplicate (AID 807);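 note: compound pretreatment 18-22 h then 72 h combined with doxorubicin; 0% = doxorubicin alone and 100% = vehicle without doxorubicin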
Details: H69AR viability with doxorubicin, CellTiter-Glo luminescence; at 10 µM; stronger effect = higher value
viability increase reference
Field: numeric (%). Do not append units.

For orientation, consider the following solved cases.
[[record]]
compound = "Cc1[nH]nc2c1C(c1ccccc1F)NC2=O (stereo unspecified)"
metric = "viability increase"
unit_name = "%"
recorded_value = -1.22

[[record]]
compound = "O=C1C(=O)N(CCCn2ccnc2)C(c2cccnc2)/C1=C(/O)c1ccc(Br)cc1 (stereo unspecified)"
metric = "viability increase"
unit_name = "%"
recorded_value = -0.15


What value of viability increase has been recorded for this entry: CC(=O)NC1(NC(C)=O)CCN(C)C(c2ccccc2)C1C (stereo unspecified)
-2

State the recorded viability increase for this entry: Cc1cc(NC(=O)C2CC(c3ccc(F)cc3)=NO2)no1 (stereo unspecified)
-0.18

Quick check: viability increase of COc1ccc(N(CC(=O)NC2CCCCC2)S(=O)(=O)c2cccnc2)cc1 ?
-1.68

Any idea what viability increase was measured for CC(=O)N1CCC(N(CCCOC(C)C)C(=O)Nc2ccc(Cl)cc2)CC1 ?
-0.86

----------
Assay: 384-well plate pilot, post-Golgi transport modulator project, inhibition of yeast transport mutant growth (AID 636)
Settings: absorbance 615 nm, about 18 h, stronger effect = higher value
metric: inhibition (%)
Return type: number; implicit unit %.

Sample records with inhibition:
[[record]]
molecule = "C[C@H](NC(=O)Nc1cccc(C(F)(F)F)c1)C(=O)O"
unit_name = "%"
recorded_value = -3.07

[[record]]
molecule = "Oc1ccc2[nH]cnc2c1CN1CCCCC1"
unit_name = "%"
recorded_value = -5.39

[[record]]
molecule = "CCOC(=O)c1ccc(NC2OC(=O)c3ccccc32)cc1 (stereo unspecified)"
unit_name = "%"
recorded_value = -6.89

[[record]]
molecule = "COC(=O)C(O)(CC(=O)c1ccc(OC)cc1)C(F)(F)F (stereo unspecified)"
unit_name = "%"
recorded_value = -1.33

[[record]]
molecule = "C=CCn1c(SCC(=O)c2ccc(OC)cc2)nnc1C(C)NC(=O)c1cccs1 (stereo unspecified)"
unit_name = "%"
recorded_value = -0.26


Would you kindly look at the next entry?
Fill in the blank: the reported inhibition of COc1cccc(OC)c1C(=O)Nc1ccc(CN2CCCCC2)cc1 is ____.
-0.66

----------
Experiment: HUVEC growth inhibition – cell-based, human, primary screen (AID 575);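 note: 100% = median of untreated cell wells with 0.1% DMSO on each plate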
Conditions: HUVEC proliferation, CellTiter-Glo luminescence, 72 h; at 10 µM; stronger effect = lower value
Calls of active or inactive are those of the source.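 The calls were made as follows: active = viability at or below 30% in both replicate assays; inconclusive = viability at or below 30% in just one of the two assays; inactive = the rest.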
The entries below come with measured viability values attached.

Please review the entries below; each comes with its answer.
[[record]]
compound = "CCC(C)(C)NC(=O)CN(Cc1ccc2c(c1)OCO2)C(=O)CCC(=O)Nc1ccccn1"
recorded_value = "105% (inactive)"

[[record]]
compound = "C=CCn1c(C)cc(C(=O)CSc2nc3ccccc3o2)c1C"
recorded_value = "81.2% (inactive)"

[[record]]
compound = "Cc1ccc(-c2nn(-c3ccccc3)cc2CN(Cc2ccccc2)C(=O)CCC(=O)O)o1"
recorded_value = "86.5% (inactive)"

[[record]]
compound = "Cc1ccc(S(=O)(=O)N(CC(=O)N2CCOCC2)CC(=O)N2CCOCC2)cc1"
recorded_value = "110% (inactive)"

[[record]]
compound = "N#Cc1c(NC(NC(=O)c2ccco2)C(=O)c2ccccc2)sc2c1CCCC2 (stereo not drawn)"
recorded_value = "70.7% (inactive)"

[[record]]
compound = "c1ccc(SCc2nc3ccccc3[nH]2)nc1"
recorded_value = "103% (inactive)"

[[record]]
compound = "CC(=O)c1cc(F)c(N2CCN(C(=O)Cc3ccccc3)CC2)cc1C"
recorded_value = "107% (inactive)"

[[record]]
compound = "CCOC(=O)c1cccnc1SCC(=O)NC(C)CC (stereo not drawn)"
recorded_value = "96.7% (inactive)"


Using the record for Cc1nc2c3cnn(-c4ccccc4)c3ncn2n1 , report its viability.
79.6% (inactive)

Report viability for CCCC1(C(=O)OCC)NC(c2ccc(N(C)C)cc2)C2C(=O)N(c3ccc(F)cc3)C(=O)C21 (stereo not drawn) please.
104% (inactive)

What value of measured viability is listed for Cc1ccc(-c2noc(CCC(=O)NC3CCCc4ccccc43)n2)cc1 (stereo not drawn) ?
83.6% (inactive)

What value of viability has been reported for the following compound? CCOc1ccc2ccccc2c1/C=N/n1cncn1
87% (inactive)

What value of viability has been reported for the following compound? C=CCSC1=C(C#N)C(c2ccccc2)CC(=O)N1 (stereo not drawn)
114% (inactive)

Item CCOC(=O)CSc1nnc(NC(=O)c2cccc(S(=O)(=O)N3CCCCC3)c2)s1 has what recorded viability?
79.6% (inactive)

----------
Each entry below carries its recorded growth inhibition.
Experiment: Restrictive medium S. cerevisiae growth inhibition, OD615, pilot screen of yeast lifespan reduction project, restrictive growth control (AID 706);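 note: modified DeaD lifespan yeast strain shifted to restrictive glucose medium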
Details: OD615, 48 h, at 10 µM, stronger effect = higher value
Give the value in % but do not write % after it.

Solved entries (count: 5):
[[record]]
molecule = "CCn1c(=O)cc(C(=O)OC)sc1=Nc1ccc(F)c(F)c1"
recorded_value = -8.74

[[record]]
molecule = "CCOC(=O)C1(c2csc(N)n2)COC(=O)C1 (stereo unspecified)"
recorded_value = 0.175

[[record]]
molecule = "O=C(CSc1nccn1-c1cccc(Cl)c1)Nc1ccc2c(c1)OCCO2"
recorded_value = 2.4

[[record]]
molecule = "COc1ccc(CN2CCN(c3ncccn3)CC2)c(OC)c1"
recorded_value = 3.13

[[record]]
molecule = "CCOC(=O)C1CCN(c2c(N3CCN(Cc4ccccc4)CC3)c(=O)c2=O)CC1"
recorded_value = -4.49


// growth inhibition lookup, key: O=C(c1cc(-c2ccc(O)cc2)on1)N1CCc2ccccc2C1
15.6

GET /values?readout=growth inhibition&item= COc1ccc(OC)c(-c2nnc(NC(=O)C(C)Sc3nncn3C)s2)c1 (stereo unspecified)
23.7

Returns the measured growth inhibition for the input molecule. Input: O=C(NCc1ccc2c(c1)OCO2)C1CCN(c2ccc(S(=O)(=O)N3CCCC3)cc2)CC1
-1.93

For the molecule COc1cc(C(=O)NCC(c2ccco2)N2CCCC2)ccc1OCc1c(C)noc1C (stereo unspecified) , what growth inhibition is on record?
-23.7

What value of growth inhibition has been reported for the following molecule? CCCCc1ccc(NC(=O)OC)cc1
10.8

Look up growth inhibition: CC1CCCN(C(c2ccccc2)c2sc3ncnn3c2O)C1 (stereo unspecified)
-1.14

----------
Experiment: reversal of MRP1-mediated doxorubicin resistance, pilot screen, H69AR cells, doxorubicin co-treatment (AID 601)
Conditions: H69AR cells + 2 uM doxorubicin, CellTiter-Glo, 72 h; measured here: viability with 2 uM doxorubicin; at 10 µM; stronger effect = lower value
This section presents compounds with their documented viability values.
API: value field is a number in %; no unit string.

Use the examples below as a reference point.
[[record]]
compound = "O=C(NCCCN1CCN(CCCNC(=O)c2ccc(F)cc2)CC1)c1ccc(F)cc1"
metric = "viability"
recorded_value = 90

[[record]]
compound = "O=C(CSc1ncccn1)NCc1ccccc1"
metric = "viability"
recorded_value = 100

[[record]]
compound = "Cc1cccc2cc(CN(CC3CCCO3)C(=O)c3cnccn3)c(=O)[nH]c12 (stereo not given)"
metric = "viability"
recorded_value = 87.9

[[record]]
compound = "O=C(O)COc1ccc(Oc2ccccc2)cc1"
metric = "viability"
recorded_value = 96

[[record]]
compound = "CCOC(=O)N1CCN(C(=O)Cn2ncn3nc(-c4cccs4)cc3c2=O)CC1"
metric = "viability"
recorded_value = 101


What value of viability has been recorded for this entry: CCCNS(=O)(=O)c1ccc(C(=O)NCC2CCCO2)cc1 (stereo not given)
96.4

Look up viability: Cc1ccc2cc3cc(C(=O)NCCN4CCOCC4)oc3nc2c1
86.6

Return reported viability; argument: O=S(=O)(NC1=NCCC1)c1cccs1
91.2

Look at this compound and give its reported viability. c1cncc(-c2nnc(SCCSc3nnc(-c4cccnc4)o3)o2)c1
91.8

# viability lookup, item CCOC(=O)Cc1nnc2c(Nc3ccc(C)cc3)nc3nonc3n12
95.2

Any idea what viability was measured for O=C1N[C@@H](Cc2cnc[nH]2)C(=O)N2CCC[C@@H]12 ?
89.3

Values were extracted from PubChem BioAssay.
